- Test system: GH3-TRE-Luc cell line
- assaySetup: read-out: AC50 (uM) modified / 1000; Tox21_110001=Tox21_111427; viability, 1 nM T3 present, 24 h
measuredMetric: CC50 (µM)
Your answer is read as µM, so omit the unit and give the number.

q: Identify measured CC50 corresponding to COc1ccc(C(=O)CC(=O)c2ccc(C(C)(C)C)cc2)cc1
a: 24.3

====

- assayName: in vitro
- assaySetup: rat, gh3-tre-luc cells, AC50 (uM) modified / 1000, Tox21_110001=Tox21_112111; viability, 1 nM T3 present, 24 h
measuredMetric: CC50 at 24 h

q: Identify measured CC50 at 24 h corresponding to C[C@]12CCC(=O)C(O)=C1CC[C@@H]1[C@@H]2CC[C@]2(C)C(=O)CC[C@@H]12 [4-Hydroxyandrostenedione]
a: > 50 µM
